- Tested on: mice
- Test: Loss of righting after intravenous administration (mouse)
- Assay type: in vivo
- Condition context: 20 min, intravenous (lateral tail vein), 20 minute observation, acid addition salts, values corrected for the salts
Response field class: enum, chosen by comparing ED50 against band 1 (below 6 mg/kg), band 2 (6 mg/kg to below 20 mg/kg), band 3 (20 mg/kg or more)

Before answering, review these 5 worked examples.
# Compound, Group label
data = [
    ("CCOC(=O)c1cc(-c2cccs2)nn1Cc1ccccn1", "band 3"),
    ("CCOC(=O)c1cc(-c2ccsc2)n(C(C)c2ccccn2)n1 (stereo not drawn)", "band 2"),
    ("CCOC(=O)c1cc(-c2ocnc2C)nn1C(C)c1ccccn1 (stereo not drawn)", "band 1"),
    ("CCOC(=O)c1cc(C(=O)OCC)n(C(C)c2cccnc2)n1 (stereo not drawn)", "band 2"),
    ("CCOC(=O)c1cc(C(=O)OCC)n(C(C)c2ccccn2)n1 (stereo not drawn)", "band 1"),
]

Prompt: Pick a category. Item: CCOC(=O)c1cc(-c2ccco2)nn1C(C)c1ccccn1 (stereo not drawn)
Completion: band 1

Prompt: Each compound maps to one class by ED50. Which class for CCOC(=O)c1cc(C)n(C(C)c2cccnc2)n1 (stereo not drawn) ?
Completion: band 3

Prompt: Band for the recorded ED50 of CCOC(=O)c1cc(C)nn1C(C)c1ccccn1 (stereo not drawn) ?
Completion: band 2

Prompt: Textbook exercise: identify the category of the compound given here, CCOC(=O)c1cc(-c2cc(C)on2)nn1C(C)c1ccccn1 (stereo not drawn) , according to its measured value.
Completion: band 2

Prompt: Which category fits this record: CCOC(=O)c1cc(C)nn1C(C)c1cccnc1 (stereo not drawn)
Completion: band 3

Prompt: State the band of CCOC(=O)c1cc(-c2cccn2C)n(C(C)c2ccccn2)n1 (stereo not drawn)
Completion: band 2
